Field: inhibition at 0.1 µM. Provide a value for each of the compounds that follow.
- study-target: rat central A1 adenosinergic receptors (Rattus norvegicus, UniProt P25099)
- Construct: After the animal has been sacrificed by decapitation, the brain is quickly removed and washed in cold isotonic solution; from tissue; host or cells: rat brain, membrane preparation from the two hemispheres
- Sequence (P25099 whole entry): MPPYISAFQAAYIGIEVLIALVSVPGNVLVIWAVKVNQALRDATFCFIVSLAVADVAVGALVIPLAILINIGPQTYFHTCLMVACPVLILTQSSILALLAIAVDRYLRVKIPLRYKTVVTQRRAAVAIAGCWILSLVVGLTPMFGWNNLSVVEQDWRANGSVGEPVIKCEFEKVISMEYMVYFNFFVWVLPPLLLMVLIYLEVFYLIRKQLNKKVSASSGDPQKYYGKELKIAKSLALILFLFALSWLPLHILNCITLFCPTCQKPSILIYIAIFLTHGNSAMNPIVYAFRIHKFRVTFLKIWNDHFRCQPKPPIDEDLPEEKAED
- assay-comment: Binding to adenosine A1 receptors ([3H] PIA displacement)
- measurement-parameters: 1E-7M; [3H] PIA 2.5 nM; n=3; read-out: % displacement of the labeled ligand, A1, 1E-7M
Numbers only, in %.

Example results:
Cc1ccc(Cn2cc(CCNc3ncnc4c3ncn4[C@@H]3O[C@H](C(=O)NC4CC4)[C@@H](O)[C@H]3O)c3ccccc32)cc1C; 29
CC(Cc1cn(C2CCCC2)c2ccccc12)Nc1ncnc2c1ncn2[C@@H]1O[C@H](C(=O)NC2CC2)[C@@H](O)[C@H]1O (stereo partly drawn); 45

For the next question, use this compound.
Q: Item `O=C(NC1CC1)[C@H]1O[C@@H](n2cnc3c(NCCc4cn(CCN5CCOCC5)c5ccccc45)ncnc32)[C@H](O)[C@@H]1O` has what recorded inhibition at 0.1 µM?
Ans: 63

====

- study-target: rat central A1 adenosinergic receptors (Rattus norvegicus)
- Construct: After the animal has been sacrificed by decapitation, the brain is quickly removed and washed in cold isotonic solution; from tissue; host or cells: rat brain, membrane preparation from the two hemispheres
- assay-comment: Binding to adenosine A1 receptors ([3H] PIA displacement)
- measurement-parameters: 1E-7M; [3H] PIA 2.5 nM; n=3; read-out: % displacement of the labeled ligand, A1, 1E-7M
assay-endpoint: inhibition at 0.1 µM (%)
Answers are plain numbers, in %.

Check out these entries, answers already filled in.
Cc1ccc(C)c(Cn2cc(CCNc3ncnc4c3ncn4[C@@H]3O[C@H](C(=O)NC4CC4)[C@@H](O)[C@H]3O)c3cc(C)ccc32)c1 [Example 85]; 50
Cc1ccc(C)c(Cn2cc(CCNc3ncnc4c3ncn4[C@@H]3O[C@H](C(=O)NC4CC4)[C@@H](O)[C@H]3O)c3ccccc32)c1 [Example 68]; 26
Cc1ccc(C)c(Cn2c(C)c(CCNc3ncnc4c3ncn4[C@@H]3O[C@H](C(=O)NC4CC4)[C@@H](O)[C@H]3O)c3ccccc32)c1 [Example 87]; 5

Return reported inhibition at 0.1 µM values for all items listed beneath this line.
1. O=C(NC1CC1)[C@H]1O[C@@H](n2cnc3c(NCCc4cn(Cc5ccc(Cl)cc5)c5ccccc45)ncnc32)[C@H](O)[C@@H]1O [Example 61]
2. O=C(NC1CC1)[C@H]1O[C@@H](n2cnc3c(NCCc4cn(CCN5CCCCC5)c5ccccc45)ncnc32)[C@H](O)[C@@H]1O [Example 71 (citrate)]
3. COCCn1cc(CCNc2ncnc3c2ncn3[C@@H]2O[C@H](C(=O)NC3CC3)[C@@H](O)[C@H]2O)c2ccccc21 [Example 63]
4. Cc1ccc(Cn2cc(CCNc3ncnc4c3ncn4[C@@H]3O[C@H](C(=O)NC4CC4)[C@@H](O)[C@H]3O)c3ccccc32)cc1 [Example 66]
5. O=C(NC1CC1)[C@H]1O[C@@H](n2cnc3c(NCCc4cn(C5CCCC5)c5ccccc45)ncnc32)[C@H](O)[C@@H]1O [Example 64]
6. COc1ccc2c(c1)c(CCNc1ncnc3c1ncn3[C@@H]1O[C@H](C(=O)NC3CC3)[C@@H](O)[C@H]1O)cn2Cc1cc(C)ccc1C [Example 86]

Ans:
[47, 91, 61, 37, 21, 16]

Go through the items and report each one's inhibition at 0.1 µM.
1. CC(C)n1cc(CCNc2ncnc3c2ncn3[C@@H]2O[C@H](C(=O)NC3CC3)[C@@H](O)[C@H]2O)c2ccccc21 [Example 65]
2. Cc1ccc(C)c(Cn2cc(CC(C)Nc3ncnc4c3ncn4[C@@H]3O[C@H](C(=O)NC4CC4)[C@@H](O)[C@H]3O)c3ccccc32)c1 (stereo partly drawn) [Example 92]
3. CN(C)CCn1cc(CCNc2ncnc3c2ncn3[C@@H]2O[C@H](C(=O)NC3CC3)[C@@H](O)[C@H]2O)c2ccccc21 [Example 70]

Ans:
1: 4; 2: 21; 3: 91
